Target sequence: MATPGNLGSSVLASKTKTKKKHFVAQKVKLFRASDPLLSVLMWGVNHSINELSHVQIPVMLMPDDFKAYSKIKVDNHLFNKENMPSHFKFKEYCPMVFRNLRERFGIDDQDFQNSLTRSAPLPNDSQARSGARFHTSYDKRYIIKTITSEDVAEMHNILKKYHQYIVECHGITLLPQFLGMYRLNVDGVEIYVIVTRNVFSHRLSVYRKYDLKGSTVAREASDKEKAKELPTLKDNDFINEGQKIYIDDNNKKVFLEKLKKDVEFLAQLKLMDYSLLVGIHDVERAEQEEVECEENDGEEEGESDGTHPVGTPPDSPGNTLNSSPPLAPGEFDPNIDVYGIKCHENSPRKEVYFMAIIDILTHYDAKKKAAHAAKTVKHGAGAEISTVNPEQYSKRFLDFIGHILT
readout kind: IC50

{"columns": ["compound", "readout kind", "assay result"],
 "data": [
  ["Cn1cc(-c2cncc(-c3ccc(N4CCCC4=O)cc3)c2)c2cccnc21 [Example 39]", "IC50", "100 to 1000 nM"],
  ["CS(=O)(=O)N1Cc2nccc(-c3cncc(-c4ccc(N5CCCC5=O)cc4)c3)c2C1 [Example 64]", "IC50", "> 5000 nM"],
  ["Nc1ncc(-c2ccncc2)cc1-c1ccc(N2CCCC2=O)cc1 [Example 84]", "IC50", "100 to 1000 nM"],
  ["CC(O)c1cnc2[nH]cc(-c3cncc(-c4ccc(C(=O)N(C)C)cc4)c3)c2c1 (centres unmarked) [Example 15]", "IC50", "100 to 1000 nM"],
  ["Nc1ncc(-c2c[nH]c3ncc(Cl)cc23)cc1-c1ccc(N2CCCC2=O)cn1 [Example 26]", "IC50", "10 to 100 nM"],
  ["O=C1CCCN1c1ccc(-c2cncc(-c3c4n(c5ncncc35)CCC4)c2)cc1 [Example 352]", "IC50", "10 to 100 nM"],
  ["Cn1cc(-c2cncc(-c3ccc(N4CCCC4=O)cc3)c2)c2cc(N3CCNCC3)cnc21 [Example 56]", "IC50", "1000 to 2500 nM"],
  ["O=C1CCCN1c1ccc(-c2cncc(-c3cn(Cc4ccccc4)c(=O)c4[nH]ncc34)c2)cc1 [Example 67]", "IC50", "100 to 1000 nM"]
]}

* * *

Protein target, amino acids: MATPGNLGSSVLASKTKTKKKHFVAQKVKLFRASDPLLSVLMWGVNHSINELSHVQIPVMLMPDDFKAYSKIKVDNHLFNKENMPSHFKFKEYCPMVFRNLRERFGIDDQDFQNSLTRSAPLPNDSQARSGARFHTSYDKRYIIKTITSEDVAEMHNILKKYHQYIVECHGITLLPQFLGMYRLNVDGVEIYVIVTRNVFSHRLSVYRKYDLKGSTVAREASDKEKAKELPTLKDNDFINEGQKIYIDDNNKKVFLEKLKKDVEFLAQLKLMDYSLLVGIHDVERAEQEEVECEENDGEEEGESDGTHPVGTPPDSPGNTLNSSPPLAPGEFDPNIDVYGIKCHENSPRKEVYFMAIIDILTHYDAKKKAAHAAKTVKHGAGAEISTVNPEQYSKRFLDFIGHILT
Form field: IC50 (one value per entry).

{"columns": ["input smiles", "IC50"],
 "data": [
  ["CN1CCn2c(cc3c(-c4cncc(-c5ccc(C(=O)N6CCOCC6)cc5)c4)ccnc32)C1=O", "2500 to 5000 nM"],
  ["Cc1c(-c2ccc(N3CCCC3=O)cc2)cncc1-c1cn(C)c2ncc(C(C)(C)O)cc12", "100 to 1000 nM"],
  ["CN1CCn2c(cc3c(-c4cncc(-c5ccc(C(=O)N6C7CCC6CC7)cc5)c4)ccnc32)C1=O", "100 to 1000 nM"],
  ["CN(C)C(=O)c1ccc(-c2cc(C3=CCOCC3)cnc2N)cc1", "< 5000 nM"],
  ["CC(=O)Nc1ccc(-c2cn(C)c3ncc(-c4cncc(-c5ccc(N6CCCC6=O)cc5)c4)cc23)cn1", "5 to 100 nM"],
  ["CC[C@H](C)n1cnnc1-c1ccc(-c2cncc(-c3ccnc4c3cc3n4CCN(C)C3=O)c2)cc1", "100 to 1000 nM"],
  ["CNC(=O)c1[nH]c2nccc(-c3cncc(-c4ccc(N5CCCC5=O)cc4)c3)c2c1C", "1000 to 2500 nM"],
  ["Cc1c2n(c3nccc(-c4cncc(-c5ccc(-c6nncn6C6CCC6)cc5)c4)c13)CCN(c1ccccn1)C2=O", "< 5000 nM"]
]}
